This listing pairs compounds with measured inhibition at 0.2 µg/mL.
Tested on: arterial ring angiogenesis in rats
Assay: Inhibitory actions on arterial ring angiogenesis in rats
Type: cell-based
Conditions: Rattus norvegicus; 0.2 μg/ml; area covered by micrangiums vs control well; read-out: Inhibitory rate (%)
outcome-measure: inhibition at 0.2 µg/mL

| compound | experimental-value |
| --- | --- |
| CCN1CCN(CC(=O)Nc2c(C)[nH]c(/C=C3\C(=O)Nc4ccc(F)cc43)c2C)CC1 [Compound 18] | 99% |
| CCN(CC)CC(=O)Nc1c(C)[nH]c(/C=C2\C(=O)Nc3ccc(F)cc32)c1C [Compound 20] | 98% |
| CCN(CC)CCC(=O)Nc1c(C)[nH]c(/C=C2\C(=O)Nc3ccc(Br)cc32)c1C [Compound 3] | 93% |
| CCN1CCN(CCC(=O)Nc2c(C)[nH]c(/C=C3\C(=O)Nc4ccc(F)cc43)c2C)CC1 [Compound 10] | 98% |

====

Tested on: human colon cancer HT 29 transplanted tumor
Assay: Nude mice transplanted tumor test
Type: in vivo, female Balb/cA nude mice
Details: 80 mg/kg intragastrically each day for 20 days; dead/total animals
Description: The nude mice transplanted tumor test used female Balb/cA nude mice, and tumor strains were human colon cancer HT 29 strains. Under sterile condition, eugonic tumor tissues stage were cut into pieces of about 1.5 mm^3, and inoculated at right axillary fossa of the nude mice. The transplanted tumor diameter was measured by vernier caliper, and the animals were randomly grouped after the tumors grew to about 120 mm^3. […] Tumor diameters and the bodyweight of mice were measured 2-3 times every week. […]
This listing pairs molecules with measured Dead animal number.

| molecule | Dead animal number |
| --- | --- |
| CCN1CCN(CC(=O)Nc2c(C)[nH]c(/C=C3\C(=O)Nc4ccc(F)cc43)c2C)CC1 [Compound 18] | 0/6 |
| CCN(CC)CC(=O)Nc1c(C)[nH]c(/C=C2\C(=O)Nc3ccc(F)cc32)c1C [Compound 20] | 0/6 |
| C=CC(=O)Nc1c(C)[nH]c(/C=C2\C(=O)Nc3ccc(F)cc32)c1C [Compound 7] | 0/6 |
| Cc1[nH]c(/C=C2\C(=O)Nc3ccc(F)cc32)c(C)c1NC(=O)CN1CCCC1 [Compound 17] | 0/6 |
| CCN(CC)CCC(=O)Nc1c(C)[nH]c(/C=C2\C(=O)Nc3ccc(Cl)cc32)c1C [Compound 2] | 0/6 |
| CCN(CC)CCS(=O)(=O)Nc1c(C)[nH]c(/C=C2\C(=O)Nc3ccc(F)cc32)c1C [Compound 9] | 0/6 |
| Cc1[nH]c(/C=C2\C(=O)Nc3ccc(F)cc32)c(C)c1NC(=O)CN1CCCCC1 [Compound 16] | 0/6 |
| CCN(CC)CCC(=O)Nc1c(C)[nH]c(/C=C2\C(=O)Nc3ccc(Br)cc32)c1C [Compound 3] | 0/6 |
| CCN(CC)CC(=O)Nc1c(C)[nH]c(/C=C2\C(=O)Nc3ccc(Cl)cc32)c1C [Compound 21] | 0/6 |
| CCN(CC)CCC(=O)Nc1c(C)[nH]c(/C=C2\C(=O)Nc3ccc(F)cc32)c1C [Compound 1] | 0/6 |
| CCN(CC)CC(=O)Nc1c(C)[nH]c(/C=C2\C(=O)Nc3ccc([N+](=O)[O-])cc32)c1C [Compound 26] | 0/6 |
| CCN(CC)CCC(=O)Nc1c(C)[nH]c(/C=C2\C(=O)Nc3ccc(NS(C)(=O)=O)cc32)c1C [Compound 8] | 0/6 |
| CCN(CC)CC(=O)Nc1c(C)[nH]c(/C=C2\C(=O)Nc3ccc(NC(C)=O)cc32)c1C [Compound 28] | 0/6 |
| Cc1[nH]c(/C=C2\C(=O)Nc3ccc(F)cc32)c(C)c1NC(=O)CCN1CCCCC1 [Compound 13] | 0/6 |

====

Experiment: Cytotoxicity test (SRB), Hela
Assay type: cell-based
Conditions: human, Hela cervical cancer cells

| query-smiles | IC50 at 72 h |
| --- | --- |
| Cc1[nH]c(/C=C2\C(=O)Nc3ccc(F)cc32)c(C)c1NC(=O)CCN(C)C | 8.08 µM |
| CCN(CC)CCS(=O)(=O)Nc1c(C)[nH]c(/C=C2\C(=O)Nc3ccc(F)cc32)c1C | > 30 µM |
| Cc1[nH]c(/C=C2\C(=O)Nc3ccc(F)cc32)c(C)c1NC(=O)CCN1CCCCC1 | > 30 µM |
| C=CC(=O)Nc1c(C)[nH]c(/C=C2\C(=O)Nc3ccc(F)cc32)c1C | 6.78 µM |
| CCN(CC)CC(=O)Nc1c(C)[nH]c(/C=C2\C(=O)Nc3cc(OC)ccc32)c1C | > 30 µM |
| Cc1[nH]c(/C=C2\C(=O)Nc3ccc(F)cc32)c(C)c1NC(=O)CN1CCCC1 | > 30 µM |
| CCN(CC)CC(=O)Nc1c(C)[nH]c(/C=C2\C(=O)Nc3cc(C)ccc32)c1C | > 30 µM |
| CCN1CCN(CCC(=O)Nc2c(C)[nH]c(/C=C3\C(=O)Nc4ccc(F)cc43)c2C)CC1 | > 30 µM |
| Cc1[nH]c(/C=C2\C(=O)Nc3ccc(F)cc32)c(C)c1NC(=O)CCN1CCOCC1 | 4.75 µM |
| CCN(CC)CC(=O)Nc1c(C)[nH]c(/C=C2\C(=O)Nc3ccc(NS(C)(=O)=O)cc32)c1C | > 30 µM |
| CCN(CC)CCC(=O)Nc1c(C)[nH]c(/C=C2\C(=O)Nc3ccc(Cl)cc32)c1C | > 30 µM |
| CCN(CC)CCC(=O)Nc1c(C)[nH]c(/C=C2\C(=O)Nc3ccc(NS(C)(=O)=O)cc32)c1C | > 30 µM |
| Cc1[nH]c(/C=C2\C(=O)Nc3ccc(F)cc32)c(C)c1NC(=O)CCN1CCCC1 | > 30 µM |
| Cc1[nH]c(/C=C2\C(=O)Nc3ccc(F)cc32)c(C)c1NC(=O)CCCN(C)C | > 30 µM |
| CCN(CC)CC(=O)Nc1c(C)[nH]c(/C=C2\C(=O)Nc3cc(C(F)(F)F)ccc32)c1C | 3.56 µM |
| Cc1[nH]c(/C=C2\C(=O)Nc3ccc(F)cc32)c(C)c1NC(=O)CN1CCN(C)CC1 | > 30 µM |

====

System: human colon cancer HT 29 transplanted tumor
Assay: Nude mice transplanted tumor test
Format: in vivo, female Balb/cA nude mice
Details: d21; 80 mg/kg intragastrically each day for 20 days
outcome-measure: d21 Wave ± SD (average bodyweight of nude mice)

| molecule | experimental-value |
| --- | --- |
| Cc1[nH]c(/C=C2\C(=O)Nc3ccc(F)cc32)c(C)c1NC(=O)CCN1CCCCC1 [Compound 13] | 20.1 ± 0.88 |
| C=CC(=O)Nc1c(C)[nH]c(/C=C2\C(=O)Nc3ccc(F)cc32)c1C [Compound 7] | 20.9 ± 0.38 |
| Cc1[nH]c(/C=C2\C(=O)Nc3ccc(F)cc32)c(C)c1NC(=O)/C=C/CN(C)C [Compound 4] | 19.6 ± 0.85 |
| CCN(CC)CC(=O)Nc1c(C)[nH]c(/C=C2\C(=O)Nc3ccc(NC(C)=O)cc32)c1C [Compound 28] | 19.5 ± 0.86 |
| CCN(CC)CCC(=O)Nc1c(C)[nH]c(/C=C2\C(=O)Nc3ccc(Br)cc32)c1C [Compound 3] | 17.3 ± 0.56 |
| Cc1[nH]c(/C=C2\C(=O)Nc3ccc(F)cc32)c(C)c1NC(=O)CN1CCCC1 [Compound 17] | 19.2 ± 0.82 |
| CCN(CC)CCS(=O)(=O)Nc1c(C)[nH]c(/C=C2\C(=O)Nc3ccc(F)cc32)c1C [Compound 9] | 21.4 ± 0.38 |
| CCN1CCN(CC(=O)Nc2c(C)[nH]c(/C=C3\C(=O)Nc4ccc(F)cc43)c2C)CC1 [Compound 18] | 18.9 ± 0.69 |
| CCN(CC)CC(=O)Nc1c(C)[nH]c(/C=C2\C(=O)Nc3ccc(Cl)cc32)c1C [Compound 21] | 19.3 ± 0.76 |
| CCN(CC)CCC(=O)Nc1c(C)[nH]c(/C=C2\C(=O)Nc3ccc(Cl)cc32)c1C [Compound 2] | 19.9 ± 0.68 |
| CCN(CC)CC(=O)Nc1c(C)[nH]c(/C=C2\C(=O)Nc3ccc([N+](=O)[O-])cc32)c1C [Compound 26] | 20.5 ± 0.35 |
| CCN(CC)CCC(=O)Nc1c(C)[nH]c(/C=C2\C(=O)Nc3ccc(F)cc32)c1C [Compound 1] | 18.8 ± 2.97 |
| CCN(CC)CC(=O)Nc1c(C)[nH]c(/C=C2\C(=O)Nc3ccc(F)cc32)c1C [Compound 20] | 20.3 ± 0.63 |
| CCN(CC)CC(=O)Nc1c(C)[nH]c(/C=C2\C(=O)Nc3cc(C(F)(F)F)ccc32)c1C [Compound 24] | 17.9 ± 0.58 |
| Cc1[nH]c(/C=C2\C(=O)Nc3ccc(F)cc32)c(C)c1NC(=O)CCCN(C)C [Compound 5] | 18.6 ± 0.87 |
| Cc1[nH]c(/C=C2\C(=O)Nc3ccc(F)cc32)c(C)c1NC(=O)CN1CCCCC1 [Compound 16] | 18.5 ± 0.59 |
| Cc1[nH]c(/C=C2\C(=O)Nc3ccc(F)cc32)c(C)c1NC(=O)CCN1CCN(C)CC1 [Compound 11] | 20.5 ± 0.49 |
| CCN(CC)CCC(=O)Nc1c(C)[nH]c(/C=C2\C(=O)Nc3ccc(NS(C)(=O)=O)cc32)c1C [Compound 8] | 17.8 ± 0.65 |
| Cc1[nH]c(/C=C2\C(=O)Nc3ccc(F)cc32)c(C)c1NC(=O)CN(C)C [Compound 22] | 20.1 ± 0.35 |
| Cc1[nH]c(/C=C2\C(=O)Nc3ccc(F)cc32)c(C)c1NC(=O)CCN(C)C [Compound 6] | 20.4 ± 0.49 |
| Cc1[nH]c(/C=C2\C(=O)Nc3ccc(F)cc32)c(C)c1NC(=O)CCN1CCOCC1 [Compound 12] | 19.1 ± 0.57 |
| CCN1CCN(CCC(=O)Nc2c(C)[nH]c(/C=C3\C(=O)Nc4ccc(F)cc43)c2C)CC1 [Compound 10] | 18.9 ± 0.97 |
